target: p38α/PRAK (Homo sapiens); test: p38α/PRAK cascade assay (IMAP, Hsp27 peptide phosphorylation); settings: Hsp27 peptide 1 μM, MgATP 10 μM, 120 minutes, read-out: p38/PRAK IC50
Entries annotated with measured pIC50
Notebook: values listed as pIC50 are -log10 of the concentration (mol/L).

Example cases with answers are listed next.
[
  {
    "MOLECULE": "Cc1ccc(-c2ccnc(C(C)(C)O)n2)cc1-n1c(C)nc(OCc2ncc(F)cc2F)c(Cl)c1=O (racemic) [Example 19]",
    "pIC50": 6.25
  },
  {
    "MOLECULE": "Cc1cccc(COc2nc(C)n(-c3cc(-c4ccnc(C(C)(C)C)n4)ccc3C)c(=O)c2Cl)c1",
    "pIC50": 4.89
  },
  {
    "MOLECULE": "COc1cccc(COc2nc(C)n(-c3cc(-c4ccnc(C(C)(C)C)n4)ccc3C)c(=O)c2Cl)c1",
    "pIC50": 4.94
  }
]

As a next step, examine the molecule that follows.
Recorded pIC50 for Cc1nc(COc2nc(C)n(-c3cc(-c4ccnc(C(C)(C)O)n4)ccc3C)c(=O)c2Cl)cs1 , please?
5.87

---

target: p38α/MK2 (Homo sapiens, UniProt Q16539); assay: p38α/MK2 cascade assay (IMAP, Hsp27 peptide phosphorylation); format: biochemical; details: ratio of p38α/PRAK:p38α/MK2 IC50 values
Sequence (Q16539 whole entry): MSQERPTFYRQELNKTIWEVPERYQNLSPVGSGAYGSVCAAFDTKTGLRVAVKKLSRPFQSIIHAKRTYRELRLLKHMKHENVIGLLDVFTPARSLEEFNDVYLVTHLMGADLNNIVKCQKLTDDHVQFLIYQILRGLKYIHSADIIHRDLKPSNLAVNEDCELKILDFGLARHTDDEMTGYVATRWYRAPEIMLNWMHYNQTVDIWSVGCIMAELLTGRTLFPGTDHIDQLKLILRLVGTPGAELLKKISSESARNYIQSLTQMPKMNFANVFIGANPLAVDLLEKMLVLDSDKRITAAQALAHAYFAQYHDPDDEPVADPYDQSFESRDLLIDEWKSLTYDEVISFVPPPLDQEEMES
Sequence (P49137 whole entry partner): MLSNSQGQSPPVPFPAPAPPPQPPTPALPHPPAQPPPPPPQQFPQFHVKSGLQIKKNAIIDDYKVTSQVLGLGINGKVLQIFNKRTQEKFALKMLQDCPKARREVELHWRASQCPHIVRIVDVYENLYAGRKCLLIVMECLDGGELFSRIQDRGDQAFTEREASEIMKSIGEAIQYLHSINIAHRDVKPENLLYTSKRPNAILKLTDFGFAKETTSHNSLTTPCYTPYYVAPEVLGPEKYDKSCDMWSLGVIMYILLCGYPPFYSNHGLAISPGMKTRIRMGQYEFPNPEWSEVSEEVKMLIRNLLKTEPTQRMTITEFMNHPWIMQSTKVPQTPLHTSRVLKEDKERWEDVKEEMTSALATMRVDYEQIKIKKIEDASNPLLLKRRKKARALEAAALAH
Entries annotated with measured Selectivity Ratio

Example cases with answers are listed next.
[
  {
    "COMPOUND": "Cc1cccc(COc2nc(C)n(-c3cc(-c4ccnc(C(C)(C)O)n4)ccc3C)c(=O)c2Cl)n1 (single isomer, unassigned) [Example 16]",
    "Selectivity Ratio": ">6.0"
  },
  {
    "COMPOUND": "Cc1nc(COc2nc(C)n(-c3cc(-c4ccnc(C(C)(C)O)n4)ccc3C)c(=O)c2Cl)co1 (single isomer, unassigned) [Example 10]",
    "Selectivity Ratio": ">1.56"
  }
]

As a next step, examine the compound that follows.
Recorded Selectivity Ratio for Cc1ccc(-c2ccnc(C(C)(C)O)n2)cc1-n1c(C)nc(OCc2cccc(C(F)(F)F)n2)c(Cl)c1=O [Example 17] , please?
>17.6

---

Biological target: p38α/PRAK (Homo sapiens, UniProt Q16539)
Experiment: p38α/PRAK cascade assay (IMAP, Hsp27 peptide phosphorylation)
Details: Hsp27 peptide 1 μM, MgATP 10 μM, 120 minutes, read-out: p38/PRAK IC50
Protocol: P38 inhibitory potency and P38/MK2 substrate selectivity: The novel, MK2 substrate-selective inhibitory mechanism of compounds is evaluated in enzyme assays that compare inhibitor potency in blocking p38/MK2 versus p38/PRAK induced phosphorylation of an HSP-27 derived peptide substrate. The ability of compounds to inhibit activated phospho-p38α is evaluated using a p38α/MK2 and a p38α/PRAK cascade assay format. […] The substrate selectivity is calculated as a ratio of p38α/PRAK:p38α/MK2 IC50 values. […]
Entries annotated with measured pIC50
Notebook: values listed as pIC50 are -log10 of the concentration (mol/L).

Example cases with answers are listed next.
[
  {
    "COMPOUND": "Cc1ccc(-c2ccnc(C(C)(C)O)n2)cc1-n1c(C)nc(OCc2ncc(F)cc2F)c(Cl)c1=O [Example 21]",
    "ASSAYED SYSTEM": "p38α/PRAK (Homo sapiens, UniProt Q16539)",
    "NUMBER": 6.60
  },
  {
    "COMPOUND": "Cc1nc(COc2nc(C)n(-c3cc(-c4ccnc(C(C)(C)O)n4)ccc3C)c(=O)c2Cl)co1 (racemic) [Example 8]",
    "ASSAYED SYSTEM": "p38α/PRAK (Homo sapiens, UniProt Q16539)",
    "NUMBER": 5.66
  },
  {
    "COMPOUND": "Cc1ccc(-c2ccnc(C(C)(C)O)n2)cc1-n1c(C)nc(OCc2cccc(F)n2)c(Cl)c1=O",
    "ASSAYED SYSTEM": "p38α/PRAK (Homo sapiens, UniProt Q16539)",
    "NUMBER": 5.11
  },
  {
    "COMPOUND": "Cc1cccc(COc2nc(C)n(-c3cc(-c4ccnc(C(C)(C)O)n4)ccc3C)c(=O)c2Cl)c1",
    "ASSAYED SYSTEM": "p38α/PRAK (Homo sapiens, UniProt Q16539)",
    "NUMBER": 6.24
  }
]

Recorded pIC50 for Cc1cc(COc2nc(C)n(-c3cc(-c4ccnc(C(C)(C)O)n4)ccc3C)c(=O)c2Cl)c(F)cc1F , please?
6.29

// repeat for Cc1cccc(COc2nc(C)n(-c3cc(-c4ccnc(C(C)(C)O)n4)ccc3C)c(=O)c2Cl)n1 [Example 15] and report
5.91

// repeat for Cc1ccc(-c2ccnc(C(C)(C)O)n2)cc1-n1c(C)nc(OCc2ccc(F)cc2F)c(Cl)c1=O and report
7.08

// repeat for Cc1nc(COc2nc(C)n(-c3cc(-c4ccnc(C(C)(C)O)n4)ccc3C)c(=O)c2Cl)co1 [Example 9] and report
5.88

// repeat for COc1cccc(COc2nc(C)n(-c3cc(-c4ccnc(C(C)(C)O)n4)ccc3C)c(=O)c2Cl)c1 and report
5.83

// repeat for Cc1cccc(COc2nc(C)n(-c3cc(-c4ccnc(C(C)(C)O)n4)ccc3C)c(=O)c2Cl)n1 (racemic) [Example 14] and report
5.48

// repeat for Cc1ccc(-c2ccnc(C(C)(C)O)n2)cc1-n1c(C)nc(OCc2ccc(F)cc2F)c(Br)c1=O and report
7.12

// repeat for Cc1ccc(-c2ccnc(C(C)(C)O)n2)cc1-n1c(C)nc(OCc2ccc(F)c(C)c2F)c(Cl)c1=O and report
5.24

// repeat for Cc1ccc(-c2ccnc(C(C)(C)O)n2)cc1-n1c(C)nc(OCc2ncc(F)cc2F)c(Cl)c1=O [Example 20] and report
4.82

// repeat for Cc1nc(COc2nc(C)n(-c3cc(-c4ccnc(C(C)(C)O)n4)ccc3C)c(=O)c2Br)cs1 and report
6.17

// repeat for Cc1cccc(COc2nc(C)n(-c3cc(-c4ccnc(C(C)(C)O)n4)ccc3C)c(=O)c2Br)n1 and report
5.89

// repeat for Cc1ccc(-c2ccnc(C(C)(C)O)n2)cc1-n1c(C)nc(OCc2ccc(F)cc2)c(Cl)c1=O and report
6.29
